Recorded values, source patent US20200024322A1.

Molecular target: T1, human GIP receptor (human, UniProt P48546 22-466)
T1 construct: whole, on cells; Used as crude membranes of stably transfected CHO cells; also called hGIPR
T1 sequence (looked up): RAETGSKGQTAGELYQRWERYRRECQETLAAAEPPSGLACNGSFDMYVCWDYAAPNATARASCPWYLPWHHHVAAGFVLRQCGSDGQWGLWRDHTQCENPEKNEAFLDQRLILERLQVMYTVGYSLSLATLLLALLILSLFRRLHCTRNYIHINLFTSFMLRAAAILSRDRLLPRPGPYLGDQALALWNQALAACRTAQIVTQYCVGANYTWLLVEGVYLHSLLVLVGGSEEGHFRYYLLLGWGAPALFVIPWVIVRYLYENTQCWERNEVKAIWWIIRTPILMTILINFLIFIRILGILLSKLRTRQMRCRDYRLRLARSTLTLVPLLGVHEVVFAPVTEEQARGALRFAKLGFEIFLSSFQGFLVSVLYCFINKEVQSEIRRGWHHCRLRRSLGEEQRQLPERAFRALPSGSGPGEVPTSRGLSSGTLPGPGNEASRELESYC
Experiment: SPA, [125I]-GIP displacement, hGIPR membranes
OUTCOME MEASURE: Ki (pM)
Just the number in pM, nothing appended.

Take a look at these entries with their results.
BINDER	SCALE UNIT	Ki
YXEGTXTSDYSIXLDKKAQXHFIEYLIEGGPSSGAPPPS (Aib2; αMeF6; αMeL13; K17((2-[2-(2-Amino-ethoxy)-ethoxy]-acetyl)2-(γ-Glu)-CO-(CH2)18-CO2H); Aib20; C-terminal NH2) [Example 142]	pM	27.5
YXEGTFTSDYSIXLDKKAQXAFIEYXIEGGPSSGAPPPS (Aib2; αMeL13; K17((2-[2-(2-Amino-ethoxy)-ethoxy]-acetyl)2-(γ-Glu)-CO-(CH2)18-CO2H); Aib20; αMeL26; C-terminal NH2) [Example 75]	pM	103

Exercise: Fill blank: measured Ki of the binder YXEGTXTSDYSIXLDKKAQXAXIEYLIEGGPSSGAPPPS (Aib2; αMeF6 (printed aMeF); αMeL13; K17((2-[2-(2-Amino-ethoxy)-ethoxy]-acetyl)2-(γ-Glu)-CO-(CH2)18-CO2H); Aib20; αMeF22; C-terminal NH2) [Example 76] is ____.
Solution: 65.9

Exercise: Fill blank: measured Ki of the binder YXEGTXTSDXSIXLDXKAQXEFIXXLIEGGPSSGAPPPS (not fully specified; Aib2; αMeF(2F)6; 4Pal10; αMeL13; Orn16; K17((2-[2-(2-Amino-ethoxy)-ethoxy]-acetyl)2-(γ-Glu)-CO-(CH2)16-CO2H); Aib20; D-Glu24; αMeY25; C-terminal NH2) [Example 4] is ____.
Solution: 52.8

Exercise: Fill blank: measured Ki of the binder YXEGTXTSDYSIXLDKKAQXAFIEYLIEGGPSSGAPPPS (Aib2; αMeF6; αMeL13; K17((2-[2-(2-Amino-ethoxy)-ethoxy]-acetyl)2-(γ-Glu)-CO-(CH2)18-CO2H); Aib20; C-terminal NH2) [Example 69] is ____.
Solution: 30
